Tested on: RXRa DBDmut IVT, anti-RXR (DBD mutation: RXRa K156A/R161A, NR concentration 90 nM)
Assay: PBM binding z-score (relative to random genomic background probes); higher = stronger binding; sequences stand for … in GC…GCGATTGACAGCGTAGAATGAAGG
Item-by-item account of PBM binding z-score
Give only the figure.

| polymer-sequence | PBM binding z-score |
| --- | --- |
| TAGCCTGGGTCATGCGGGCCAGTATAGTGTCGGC | -0.265 |
| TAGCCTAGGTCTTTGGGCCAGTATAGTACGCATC | -0.783 |
| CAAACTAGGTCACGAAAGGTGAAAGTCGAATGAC | 1.59 |

Below: the item to evaluate.
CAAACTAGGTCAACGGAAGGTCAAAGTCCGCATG has a reported PBM binding z-score of 2.17

###

Tested on: RARb homodimer (NR concentration 270 nM)
Assay: PBM binding z-score (relative to random genomic background probes); higher = stronger binding; sequences stand for … in GC…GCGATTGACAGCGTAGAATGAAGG
Cut-off 2 on PBM binding z-score, inclusive. At or above means YES; below means NO.

| polymer-sequence | class |
| --- | --- |
| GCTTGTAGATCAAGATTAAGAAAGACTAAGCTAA | NO |
| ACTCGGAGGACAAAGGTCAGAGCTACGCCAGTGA | YES |
| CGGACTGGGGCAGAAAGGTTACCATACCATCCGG | YES |

Inquiry: Entry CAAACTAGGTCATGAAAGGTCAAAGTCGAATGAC : is its PBM binding z-score no less than 2?
Reply text: YES

Inquiry: Determine whether measured PBM binding z-score meets or exceeds 2 for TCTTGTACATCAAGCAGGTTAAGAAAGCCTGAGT
Reply text: NO

Inquiry: Textbook exercise: given the entry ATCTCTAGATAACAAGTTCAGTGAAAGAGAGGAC , state whether its PBM binding z-score is greater than or equal to 2.
Reply text: NO

Inquiry: Does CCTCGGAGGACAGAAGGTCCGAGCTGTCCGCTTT have a reported PBM binding z-score of at least 2?
Reply text: NO

Inquiry: Determine whether measured PBM binding z-score meets or exceeds 2 for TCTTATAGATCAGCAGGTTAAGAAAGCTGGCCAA
Reply text: NO

Inquiry: Could you verify whether the entry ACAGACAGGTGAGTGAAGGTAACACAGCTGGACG shows PBM binding z-score of no less than 2?
Reply text: NO

Inquiry: For this sequence, is measured PBM binding z-score 2 or higher? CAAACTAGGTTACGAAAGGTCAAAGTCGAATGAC
Reply text: YES

Inquiry: Confirm if PBM binding z-score reported for the sequence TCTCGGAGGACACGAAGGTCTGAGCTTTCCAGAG is 2 or above.
Reply text: NO

Inquiry: Reported PBM binding z-score at or above 2? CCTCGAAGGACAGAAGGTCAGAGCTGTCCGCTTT
Reply text: YES

###

Test system: FXR:RXRa (NR concentration 270 nM, RXRa partner concentration 90 nM)
Experiment: PBM binding z-score (relative to random genomic background probes); higher = stronger binding; sequences stand for … in GC…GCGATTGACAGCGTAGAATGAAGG
Record 1 (yes) whenever PBM binding z-score is at 1 or higher; record 0 (no) when lower.

Use the examples below as a reference point.
| polymer-sequence | class |
| --- | --- |
| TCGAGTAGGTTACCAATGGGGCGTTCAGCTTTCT | 0 (no) |
| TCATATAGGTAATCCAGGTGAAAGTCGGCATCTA | 1 (yes) |
| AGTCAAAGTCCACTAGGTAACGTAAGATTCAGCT | 0 (no) |
| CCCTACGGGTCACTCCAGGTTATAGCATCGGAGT | 1 (yes) |

Inquiry: Could you please find out whether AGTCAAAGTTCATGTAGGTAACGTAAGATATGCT has PBM binding z-score that meets 1 or exceeds it?
Reply text: 1 (yes)

Inquiry: Given the entry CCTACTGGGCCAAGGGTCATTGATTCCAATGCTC , answer whether its PBM binding z-score meets or surpasses 1.
Reply text: 1 (yes)

Inquiry: API: above_or_equal(metric=PBM binding z-score, cutoff=1) for item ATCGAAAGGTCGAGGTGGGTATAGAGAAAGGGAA
Reply text: 1 (yes)

Inquiry: Please indicate if the recorded PBM binding z-score for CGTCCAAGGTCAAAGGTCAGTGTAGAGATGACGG meets or exceeds 1.
Reply text: 1 (yes)

Inquiry: API: above_or_equal(metric=PBM binding z-score, cutoff=1) for item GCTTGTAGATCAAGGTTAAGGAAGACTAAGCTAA
Reply text: 0 (no)

Inquiry: Dear colleague, could you confirm whether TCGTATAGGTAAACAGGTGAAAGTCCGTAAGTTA has PBM binding z-score at or above 1?
Reply text: 1 (yes)
